# study_system: T1, recombinant human CD39 (in-house product, 38 to 478 aa of Accession No. NM_001776.6) (human, UniProt P49961 38-478)
# T1 construct: also called rhCD39; human CD39-ECD; not shown: Myc and His tags at the C-terminus are named only for the PE-lab
# T1 sequence (looked up): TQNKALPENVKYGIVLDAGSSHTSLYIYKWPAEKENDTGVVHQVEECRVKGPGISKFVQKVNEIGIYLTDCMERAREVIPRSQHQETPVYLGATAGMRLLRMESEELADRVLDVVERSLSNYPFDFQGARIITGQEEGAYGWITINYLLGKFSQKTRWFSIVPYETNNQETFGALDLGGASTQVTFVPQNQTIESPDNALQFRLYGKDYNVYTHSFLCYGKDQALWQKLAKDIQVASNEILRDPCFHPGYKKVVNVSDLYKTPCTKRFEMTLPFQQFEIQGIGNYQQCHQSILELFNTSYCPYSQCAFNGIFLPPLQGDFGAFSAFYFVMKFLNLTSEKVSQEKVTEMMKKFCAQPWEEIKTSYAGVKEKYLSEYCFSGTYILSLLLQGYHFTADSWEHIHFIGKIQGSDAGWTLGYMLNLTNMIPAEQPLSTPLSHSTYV
# run_description: SPR Biacore8K, antibody captured on anti-human IgG, antigen as analyte
koff overview
measured_endpoint: koff

Tre_291_sc (antibody, scFv-Fc homodimer, anti-CD39 (mouse variable regions); not shown: linker and Fc-LALA (human IgG1 Fc with L234A and L235A)) scFv: QVQLKQSGPGLVQPSQSLSITCTVSGFSLTSYGVHWVRQSPGKGLEWLGVIWRRGSTDYNAAFMSRLSITKDTSKSQVFFKMNSLQTDDTAIYYCAGVRGDAMDYWGQGTSVTVSSGGGGSGGGGSGGGGSGGGGSDIVMTQSHKSMSTSVGDRVSVTCKASQNVGTNVAWYQQKPGQSPKALIYSASYRYSGVPDRFTGSGSGTDFTLTISNVQSEDLAEYFCQQYNSYPLTFGGGTKLEIK = 0.0031 s⁻¹
6-3hIG_sc (antibody, scFv-Fc homodimer, anti-CD39; also called scFv-Fc homodimeric antibody of anti-CD39_scFv antibody (humanized) 6-3hIG; not shown: GGGG linker and Fc-LALA (human IgG1 Fc with L234A and L235A)) scFv: QVQLVQSGAELVKPGASVKLSCKASGFSIKDTYVHWVKQAPGKGLEWIGKIDPANVNTKFDPKFQGRVTITADTSTNTAYLQLSSLRSEDTAVYYCALYGYDDDAYYFDYWGQGTLVTVSSGGGGSGGGGSGGGGSGGGGSEIVLTQSPASLSVSPGERATISCRASESVDNYGISFMNWFQQKPGQAPKLLIYAASNQGSGVPARFSGSGSGTDFTLTISSLEPEDFAVYYCQQSKEVPYTFGQGTKLEIK = 0.000187 s⁻¹
